Reported MIC values are given for each entry in this list.
- System: Mycobacterium tuberculosis
- Method notes: Antitubercular activity against Mycobacterium tuberculosis H37Rv in anaerobic condition after 7 days by low oxygen recovery assay
- Type: functional
- Stated conditions: 168 h
Measurement type: MIC (µM)

Smi: O=[N+]([O-])c1cn2c(n1)OC[C@@H](OCc1ccc(-c3ccccc3F)cc1)C2
Target or system: Mycobacterium tuberculosis
Value unit: µM
Measured result: 0.67
//
Smi: COc1ccc(-c2ccc(CO[C@@H]3COc4nc([N+](=O)[O-])cn4C3)cc2)cc1F
Target or system: Mycobacterium tuberculosis
Value unit: µM
Measured result: 1.9
//
Smi: N#Cc1ccc(-c2ccc(CO[C@@H]3COc4nc([N+](=O)[O-])cn4C3)cc2)cc1
Target or system: Mycobacterium tuberculosis
Value unit: µM
Measured result: 0.58
//
Smi: O=[N+]([O-])c1cn2c(n1)OC[C@@H](OCc1cccc(-c3ccc(F)cc3)c1)C2
Target or system: Mycobacterium tuberculosis
Value unit: µM
Measured result: 3.8
//
Smi: O=[N+]([O-])c1cn2c(n1)OC[C@@H](OCc1ccc(-c3cccc(F)c3)cc1)C2
Target or system: Mycobacterium tuberculosis
Value unit: µM
Measured result: 2.2
//
Smi: O=[N+]([O-])c1cn2c(n1)OC[C@@H](OCc1ccc(-c3ccc(F)c(F)c3)cc1)C2
Target or system: Mycobacterium tuberculosis
Value unit: µM
Measured result: 1.2
//
Smi: O=[N+]([O-])c1cn2c(n1)OC[C@@H](OCc1ccccc1-c1ccccc1OC(F)(F)F)C2
Target or system: Mycobacterium tuberculosis
Value unit: µM
Measured result: 6.2
//
Smi: O=[N+]([O-])c1cn2c(n1)OC[C@@H](OCc1ccc(-c3ccccc3O)cc1)C2
Target or system: Mycobacterium tuberculosis
Value unit: µM
Measured result: 4.6
//
Smi: CSc1cccc(-c2cccc(CO[C@@H]3COc4nc([N+](=O)[O-])cn4C3)c2)c1
Target or system: Mycobacterium tuberculosis
Value unit: µM
Measured result: 1.4

---

- Method notes: Metabolic stability in pooled human liver microsomes assessed as compound remaining after 1 hr by LC-MS-MS
- Assay type: ADME, Microsome
- Stated conditions: read-out: Stability
Measurement type: remaining at 1 h (%)

Compound: O=[N+]([O-])c1cn2c(n1)OC[C@@H](OCc1ccc(-c3ccc(OC(F)(F)F)cc3Cl)cc1)C2
Measurement type: remaining at 1 h
Measured result: 91
//
Compound: O=[N+]([O-])c1cn2c(n1)OC[C@@H](OCc1ccc(-c3ccc(CNc4ccccc4)cc3)cc1)C2
Measurement type: remaining at 1 h
Measured result: 12
//
Compound: O=[N+]([O-])c1cn2c(n1)OC[C@@H](OCc1ccc(-c3ccc(Cl)c(OC(F)F)c3)cc1)C2
Measurement type: remaining at 1 h
Measured result: 83
//
Compound: O=[N+]([O-])c1cn2c(n1)OC[C@@H](OCc1ccc(-c3ccc(C(F)(F)F)cc3)cc1)C2
Measurement type: remaining at 1 h
Measured result: 60
//
Compound: COc1c(F)cc(F)cc1-c1ccc(CO[C@@H]2COc3nc([N+](=O)[O-])cn3C2)cc1
Measurement type: remaining at 1 h
Measured result: 72
//
Compound: CC(=O)c1ccc(-c2ccc(CO[C@@H]3COc4nc([N+](=O)[O-])cn4C3)cc2)cc1
Measurement type: remaining at 1 h
Measured result: 36
//
Compound: O=[N+]([O-])c1cn2c(n1)OC[C@@H](OCc1ccc(-c3ccc(Oc4ccccc4)cc3)cc1)C2
Measurement type: remaining at 1 h
Measured result: 22
//
Compound: O=[N+]([O-])c1cn2c(n1)OC[C@@H](OCc1ccc(-c3ccc(Cl)c(C(F)(F)F)c3)cc1)C2
Measurement type: remaining at 1 h
Measured result: 92
//
Compound: O=[N+]([O-])c1cn2c(n1)OC[C@@H](OCc1ccc(-c3ccc(C(F)(F)F)cc3Cl)cc1)C2
Measurement type: remaining at 1 h
Measured result: 92
//
Compound: O=[N+]([O-])c1cn2c(n1)OC[C@@H](OCc1ccc(-c3ccc(OC(F)F)cc3)cc1)C2
Measurement type: remaining at 1 h
Measured result: 94
//
Compound: O=[N+]([O-])c1cn2c(n1)OC[C@@H](OCc1ccc(-c3ccc(OC(F)(F)F)c(F)c3)cc1)C2
Measurement type: remaining at 1 h
Measured result: 93
//
Compound: O=[N+]([O-])c1cn2c(n1)OC[C@@H](OCc1ccc(OC(F)(F)F)cc1)C2 [PRETOMANID]
Measurement type: remaining at 1 h
Measured result: 82
//
Compound: O=[N+]([O-])c1cn2c(n1)OC[C@@H](OCc1ccc(-c3ccc(F)cc3)cc1)C2
Measurement type: remaining at 1 h
Measured result: 75
//
Compound: O=[N+]([O-])c1cn2c(n1)OC[C@@H](OCc1ccc(-c3ccc(OCCCN4CCOCC4)cc3)cc1)C2
Measurement type: remaining at 1 h
Measured result: 11
//
Compound: O=[N+]([O-])c1cn2c(n1)OC[C@@H](OCc1ccc(-c3ccc(Cl)c(OC(F)(F)F)c3)cc1)C2
Measurement type: remaining at 1 h
Measured result: 95
//
Compound: O=[N+]([O-])c1cn2c(n1)OC[C@@H](OCc1ccc(-c3ccccc3OCCCO)cc1)C2
Measurement type: remaining at 1 h
Measured result: 59
//
Compound: O=[N+]([O-])c1cn2c(n1)OC[C@@H](OCc1ccc(-c3ccc(OC(F)(F)F)c(Cl)c3)cc1)C2
Measurement type: remaining at 1 h
Measured result: 90
//
Compound: O=[N+]([O-])c1cn2c(n1)OC[C@@H](OCc1ccc(-c3ccc(OC(F)(F)F)cc3F)cc1)C2
Measurement type: remaining at 1 h
Measured result: 88
//
Compound: CCOc1ccccc1-c1ccc(CO[C@@H]2COc3nc([N+](=O)[O-])cn3C2)cc1
Measurement type: remaining at 1 h
Measured result: 50
//
Compound: N#Cc1ccc(-c2ccc(CO[C@@H]3COc4nc([N+](=O)[O-])cn4C3)cc2)cc1
Measurement type: remaining at 1 h
Measured result: 95
//
Compound: O=[N+]([O-])c1cn2c(n1)OC[C@@H](OCc1ccc(-c3cccc(OCc4ccccc4)c3)cc1)C2
Measurement type: remaining at 1 h
Measured result: 64
//
Compound: COc1cccc(F)c1-c1ccc(CO[C@@H]2COc3nc([N+](=O)[O-])cn3C2)cc1
Measurement type: remaining at 1 h
Measured result: 91
//
Compound: COc1ccc(-c2ccc(CO[C@@H]3COc4nc([N+](=O)[O-])cn4C3)cc2)cc1F
Measurement type: remaining at 1 h
Measured result: 80

---

- Method notes: Metabolic stability in pooled CD1 mouse liver microsomes assessed as compound remaining after 1 hr by LC-MS-MS
- Assay type: ADME, Microsome
- Stated conditions: read-out: Stability

Smi: O=[N+]([O-])c1cn2c(n1)OC[C@@H](OCc1ccc(-c3ccc(Cl)c(C(F)(F)F)c3)cc1)C2
remaining at 1 h: 96%
//
Smi: O=[N+]([O-])c1cn2c(n1)OC[C@@H](OCc1ccc(-c3ccc(F)cc3)cc1)C2
remaining at 1 h: 55%
//
Smi: O=[N+]([O-])c1cn2c(n1)OC[C@@H](OCc1ccc(-c3ccc(Cl)c(OC(F)F)c3)cc1)C2
remaining at 1 h: 86%
//
Smi: O=[N+]([O-])c1cn2c(n1)OC[C@@H](OCc1ccc(-c3ccc(OC(F)(F)F)c(F)c3)cc1)C2
remaining at 1 h: 86%
//
Smi: CCOc1ccccc1-c1ccc(CO[C@@H]2COc3nc([N+](=O)[O-])cn3C2)cc1
remaining at 1 h: 0.2%
//
Smi: O=[N+]([O-])c1cn2c(n1)OC[C@@H](OCc1ccc(-c3ccc(C(F)(F)F)cc3Cl)cc1)C2
remaining at 1 h: 93%
//
Smi: N#Cc1ccc(-c2ccc(CO[C@@H]3COc4nc([N+](=O)[O-])cn4C3)cc2)cc1
remaining at 1 h: 58%
//
Smi: COc1ccc(-c2ccc(CO[C@@H]3COc4nc([N+](=O)[O-])cn4C3)cc2)cc1F
remaining at 1 h: 50%
//
Smi: O=[N+]([O-])c1cn2c(n1)OC[C@@H](OCc1ccc(-c3ccc(OCCCN4CCOCC4)cc3)cc1)C2
remaining at 1 h: 14%
//
Smi: O=[N+]([O-])c1cn2c(n1)OC[C@@H](OCc1ccc(-c3ccc(OC(F)(F)F)cc3F)cc1)C2
remaining at 1 h: 89%
//
Smi: O=[N+]([O-])c1cn2c(n1)OC[C@@H](OCc1ccc(-c3ccc(CNc4ccccc4)cc3)cc1)C2
remaining at 1 h: 52%
//
Smi: O=[N+]([O-])c1cn2c(n1)OC[C@@H](OCc1ccc(-c3ccc(Cl)c(OC(F)(F)F)c3)cc1)C2
remaining at 1 h: 92%
//
Smi: O=[N+]([O-])c1cn2c(n1)OC[C@@H](OCc1ccc(-c3cccc(OCc4ccccc4)c3)cc1)C2
remaining at 1 h: 50%
//
Smi: COc1cccc(F)c1-c1ccc(CO[C@@H]2COc3nc([N+](=O)[O-])cn3C2)cc1
remaining at 1 h: 0%
